Data credit: ChEMBL document CHEMBL1201862

# EXPERIMENTAL_TARGET: CAAX prenyl protease 2 (Homo sapiens)
# Sequence (Q9Y256 whole entry): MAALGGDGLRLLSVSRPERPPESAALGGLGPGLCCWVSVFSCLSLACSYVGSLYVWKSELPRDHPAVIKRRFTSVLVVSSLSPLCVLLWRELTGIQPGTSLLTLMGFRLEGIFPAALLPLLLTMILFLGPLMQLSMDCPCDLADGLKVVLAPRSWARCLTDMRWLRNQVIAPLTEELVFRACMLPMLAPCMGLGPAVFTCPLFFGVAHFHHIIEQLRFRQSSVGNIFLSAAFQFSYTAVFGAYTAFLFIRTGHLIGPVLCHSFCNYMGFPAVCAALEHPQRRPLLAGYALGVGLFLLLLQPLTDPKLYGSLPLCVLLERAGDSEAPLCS
# EXPERIMENT_NOTES: human Rce1 protease inhibitors, dose response, biochemical, yeast membranes, quenched-peptide fluorescence, cherry-pick (AID 588849)
Calls of active or inactive are those of the source.

| SMILES_STR | AC50 |
| --- | --- |
| CCc1ccc(NC(=O)c2cnc(N3CCN(c4ccccn4)CC3)c3ccccc23)cc1 | 29.7 µM (active) |
| CN(C)c1ccc(/C=N/NC(=O)CNC(=O)c2ccco2)cc1 | 5.17 µM (active) |
| C/C(Cl)=C\Cn1c(O)c(/N=N/C(=N)S)c2cc(Br)ccc21 | 12.6 µM (active) |
| CN(c1ccccc1)c1ccc(/C=N/NC(=O)CC#N)cc1 | 2.64 µM (active) |

====

# EXPERIMENT_NOTES: inhibitors of intracellular T. cruzi replication, confirmation, NIH3T3 host cells, beta-gal luminescence (AID 2044);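 further: intracellular parasites grown in NIH/3T3 mouse fibroblasts as host cells; luminescent beta-galactosidase reporter signal from transgenic T. cruzi replicating inside host cells; inhibitors lower the luminescence signal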
# Format: functional, cell-based
Activity calls are given as the source filed them.
EC50: recorded values
MEASURE_NAME: EC50

| COMPOUND | OBSERVED_VALUE |
| --- | --- |
| Nc1ccc(C(=O)N/N=C\c2cc(N=Nc3cccc4ccccc34)ccc2O)cc1 | 1.12 µM (active) |
| COc1ccc(NS(=O)(=O)c2cc(NC(=O)/C=C/c3cc(OC)c(OC)c(OC)c3)ccc2N2CCCCC2)cc1 | 1.63 µM (active) |
| Cc1cccc(Cc2cnc(N3C(=N)SC(C)C3=O)s2)c1 (centres undefined) | 2.41 µM (active) |
| Cc1c(C)n(CCCN(C)C)c2ncnc(NC3CCCCC3)c12 | 0.603 µM (active) |
| COc1ccc(C(=O)Nc2ccccc2)cc1NC(=O)c1ccc([N+](=O)[O-])cc1 | 1.33 µM (active) |
| CCN(c1ccccc1)S(=O)(=O)c1ccc(C(=O)Nc2nnc(C3CC3)o2)cc1 | 2.16 µM (active) |
| N=C(N)N/N=C/c1ccc(Cl)cc1Cl | 0.204 µM (active) |
| N=c1c2c(-c3ccccc3)c(-c3ccccc3)n(Cc3ccccc3)c2ncn1CCCn1ccnc1 | 2.44 µM (active) |
| O=C(NCC1CCCN(Cc2ccccc2F)C1)c1cccc(C(F)(F)F)c1 (centres undefined) | 0.975 µM (active) |

====

Estrogen receptor beta (Homo sapiens, UniProt Q92731): recorded IC50 for assorted compounds;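 further: recombinant ER-beta bound to coactivator SRC1 peptide in presence of estradiol agonist; inhibitors block coactivator peptide binding and lower the FRET signal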
Sequence (Q92731 whole entry): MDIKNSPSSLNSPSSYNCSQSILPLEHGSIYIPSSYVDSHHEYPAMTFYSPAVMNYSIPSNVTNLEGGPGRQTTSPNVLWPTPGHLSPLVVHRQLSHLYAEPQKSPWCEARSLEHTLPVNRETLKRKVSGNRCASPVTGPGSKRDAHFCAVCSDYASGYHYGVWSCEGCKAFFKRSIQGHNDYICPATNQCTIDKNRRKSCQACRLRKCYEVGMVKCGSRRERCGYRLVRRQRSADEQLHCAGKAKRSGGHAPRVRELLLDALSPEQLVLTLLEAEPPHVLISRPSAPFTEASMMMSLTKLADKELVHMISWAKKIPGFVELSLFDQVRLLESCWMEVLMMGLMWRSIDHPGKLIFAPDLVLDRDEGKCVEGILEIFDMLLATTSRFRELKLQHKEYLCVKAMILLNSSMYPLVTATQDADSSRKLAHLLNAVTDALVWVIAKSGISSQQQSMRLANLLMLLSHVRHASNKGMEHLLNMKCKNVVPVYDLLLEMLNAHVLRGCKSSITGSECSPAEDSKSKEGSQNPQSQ
Activity calls are given as the source filed them.

| COMPOUND | EXPERIMENTAL_TARGET | IC50 |
| --- | --- | --- |
| Cc1ccc(C(=O)CSC2=C(C#N)C(c3ccco3)CC(=O)N2)c(C)c1 (centres undefined) | Estrogen receptor beta (Homo sapiens, UniProt Q92731) | 16.1 µM (active) |
| c1coc(-c2nn3c(-c4ccco4)nnc3s2)c1 | Estrogen receptor beta (Homo sapiens, UniProt Q92731) | 24 µM (active) |
| c1coc(-c2nnc3sc(Cc4cccs4)nn23)c1 | Estrogen receptor beta (Homo sapiens, UniProt Q92731) | < 1.56 µM (active) |
| N=c1c(-c2nc3ccccc3[nH]2)cc(C(=O)c2cccs2)nn1-c1ccc(Cl)cc1 | Estrogen receptor beta (Homo sapiens, UniProt Q92731) | > 50 µM (not active) |

====

IC50: recorded values
# EXPERIMENTAL_TARGET: Ubiquitin-conjugating enzyme E2 N (Homo sapiens, UniProt P61088)
# Sequence (P61088 whole entry): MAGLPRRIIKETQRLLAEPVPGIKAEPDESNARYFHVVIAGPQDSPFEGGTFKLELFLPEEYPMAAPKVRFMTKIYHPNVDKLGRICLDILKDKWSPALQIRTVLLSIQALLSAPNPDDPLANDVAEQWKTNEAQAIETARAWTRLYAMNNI
# Assay type: functional
Activity calls are given as the source filed them.
MEASURE_NAME: IC50

| SMILES_STR | EXPERIMENTAL_TARGET | MEASURE_NAME | OBSERVED_VALUE |
| --- | --- | --- | --- |
| O=C(c1ccc(-c2cc(O)c3ncccc3c2)cc1)N1CCNCC1 | Ubiquitin-conjugating enzyme E2 N (Homo sapiens, UniProt P61088) | IC50 | 3.14 µM (active) |
| CCN1CCN(Cc2ccc(NC(=O)c3cc(NC(=O)C(=O)c4c[nH]c5ccccc45)cc(OC)c3)cc2C(F)(F)F)CC1 | Ubiquitin-conjugating enzyme E2 N (Homo sapiens, UniProt P61088) | IC50 | 11.9 µM (active) |
| O=C(C[n+]1ccc(CCSc2ccc(F)cc2)cc1)c1ccccc1 | Ubiquitin-conjugating enzyme E2 N (Homo sapiens, UniProt P61088) | IC50 | 1.02 µM (active) |
| COc1cc2nc(Nc3ccc(C)c(Cl)c3)nc(N)c2cc1OC | Ubiquitin-conjugating enzyme E2 N (Homo sapiens, UniProt P61088) | IC50 | 5.71 µM (active) |
